Test system: MS2 coat protein
Method: apparent KD of MS2 coat protein; designed switch direction (-1 OFF switch, 1 ON switch): -1; higher = weaker reporter binding
Measurement Conditions: input ligand: FMN 200 uM
# apparent KD of MS2 coat protein annotations
Field format: number, assumed nM, no unit text.

// worked examples, apparent KD of MS2 coat protein included
{"columns": ["Sequence Content", "Subject Of Test", "Observed"],
 "data": [
  ["GCAGCAUAGUGUAAUAACACAAUACAUGAGGAUCACCCAUGUGAGGAUAUGGACUGGAUUACAGUCCAGAAGGCACAAAGCUGC [Zipper Style 2] (Eterna round: R96, puzzle: Exclusion NG 3)", "MS2 coat protein", 19.9],
  ["UGCCGAUGAGGAUAUACAUUGAAUAAGAUUCAUGUAAAACUACAUGAGGAUCACCCAUGUAGAAGGCAUUGGCU [Mat - Exclusion 2 - JL Mod - D69] (Eterna round: R97, puzzle: Exclusion 2)", "MS2 coat protein", 25.7]
]}

Q: Look up and report measured apparent KD of MS2 coat protein for this entry: CGUAGCAAAGUGAGGAUAUCUAGAGCCUCGGCUCUAGAGAAGGCACAUGAGGAUCACCCAUGUGAUUAGCUACG [BmEx4/9-A2] (Eterna round: R97, puzzle: Brourd's mod of Exclusion 4)
Ans: 173

Q: State, in one line, measured apparent KD of MS2 coat protein of AGCUGUGGCCGAGGAUAUACACAUGAGGAUCACCCAUGUAGGCGCGGAUACGCGCUAAAAUAAGUGUAGAAGGCGGUCUCAGCA [Eli eng2 - 056] (Eterna round: R96, puzzle: Exclusion NG 2)
Ans: 20.1

Q: Quickly give me recorded apparent KD of MS2 coat protein for AGGUGUAGAGGAUAUACUGCAAAGCACAUGAGGAUCACCCAUGUCCCUCUAUGGGAUUAUGUAGAAGGCUACACCA [Omei Ex5 C6] (Eterna round: R97, puzzle: Exclusion 5)
Ans: 17.5
